test system: HCT116; experiment: efficacy (fitted maximal change in viability relative to DMSO control); higher = less cytotoxic (negative = loss of viability); conditions: 48 h;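 also: Luminescence-based viability readout, five doses per compound, normalized against on-plate DMSO and empty-well controls, followed by dose-response curve fitting for every drug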
Counter-ions that a name gives are not always drawn.
// values below are reported efficacy
readout: efficacy (%)

INSERT INTO assay_data (molecule, readout, testvalue) VALUES
  ('CC[C@H]1OC(=O)[C@H](C)C(=O)[C@H](C)[C@@H](O[C@H]2O[C@H](C)C[C@H](N(C)C)[C@H]2O)[C@](C)(OC)C[C@@H](C)C(=O)[C@H](C)[C@H]2N(CCCCn3cnc(-c4cccnc4)c3)C(=O)O[C@]12C', 'efficacy', -11.9),
  ('CC#C[C@]1(O)CC[C@H]2[C@@H]/3CCC/4=C/C(=O)CCC4=C3[C@H](C[C@]12C)C5=CC=C(C=C5)N(C)C', 'efficacy', -73.4),
  ('CCC1=C2C=C(OC(=O)N3CCC(CC3)N4CCCCC4)C=CC2=NC\5=C1CN6C(=O)\C7=C(/C=C56)[C@@](O)(CC)C(=O)OC7', 'efficacy', -80),
  ('N=C(NCCCCCCNC(=N)NC(=N)Nc1ccc(Cl)cc1)NC(=N)Nc1ccc(Cl)cc1', 'efficacy', -93.5),
  ('N=C1S/C(=C\c2ccc(-c3ccc4c(c3)C(=O)NC4=O)o2)C(=O)N1c1ccc(Br)cc1', 'efficacy', -15.3),
  ('COc1cc(OC)cc(N(CCNC(C)C)c2ccc3ncc(-c4cnn(C)c4)nc3c2)c1', 'efficacy', -123),
  ('CN(Cc1cc(Br)cc(Br)c1N)C1CCCCC1 [Bromhexine hydrochloride]', 'efficacy', -27.2),
  ('CC(C)(C#N)c1cc(Cn2cncn2)cc(C(C)(C)C#N)c1', 'efficacy', -11.5),
  ('CCOC(=O)[C@H](CCc1ccccc1)N[C@@H](C)C(=O)N1CCC[C@H]1C(=O)O [Enalapril maleate]', 'efficacy', -15.7),
  ('CN1CCc2c(n(Cc3ccc(C(=O)NO)cc3)c3ccccc23)C1', 'efficacy', -98.9),
  ('ClC1=CC=C2N/C3=N/C(=O)CN3CC2=C1Cl [Anagrelide]', 'efficacy', -14.6),
  ('O=C(CCCCCCC(=O)Nc1ccc([C@H]2O[C@@H](CSc3nc(-c4ccccc4)c(-c4ccccc4)o3)C[C@@H](c3ccc(CO)cc3)O2)cc1)NO', 'efficacy', -23.7),
  ('CC(C)Oc1ccc(-c2nc(-c3cccc4c3CC[C@@H]4NCCO)no2)cc1C#N', 'efficacy', -31.3),
  ('COc1cc(N2CCC(N3CCN(C)CC3)CC2)ccc1Nc1ncc(Cl)c(Nc2ccccc2P(C)(C)=O)n1', 'efficacy', -75.3),
  ('Cc1ccnc(N[S+](=O)([O-])c2ccc(NC(=O)Nc3ccc([S+](=O)([O-])Nc4nccc(C)n4)cc3)cc2)n1', 'efficacy', -21.3),
  ('COc1nccc(-c2c(-c3ccc(F)cc3)ncn2C2CCC(O)CC2)n1 (centres undefined)', 'efficacy', -34.5),
  ('CCN(CC)CCCC[C@H](NC(=O)[C@H](CC(C)C)NC(=O)[C@H](C)NC(=O)[C@H](Cc1ccccc1)NC(=O)c1ccc(C(C)(C)C)cc1)C(=O)N[C@@H](CO)C(=O)OC', 'efficacy', -18.9),
  ('CC(=O)N[C@H]1[C@H](O[C@@H]2c3ccc(c(Cl)c3)Oc3cc4cc(c3O[C@@H]3O[C@H](CO)[C@@H](O)[C@H](O)[C@H]3NC(=O)CCCCCCCC(C)C)Oc3ccc(cc3Cl)C[C@H]3NC(=O)[C@H](N)c5ccc(O)c(c5)Oc5cc(O)cc(c5)[C@H](NC3=O)C(=O)N[C@H]4C(=O)N[C@H]3C(=O)N[C@@H]2C(=O)N[C@@H](C(=O)O)c2cc(O)cc(O[C@H]4O[C@H](CO)[C@@H](O)[C@H](O)[C@@H]4O)c2-c2cc3ccc2O)O[C@H](CO)[C@@H](O)[C@@H]1O', 'efficacy', -14.5),
  ('CCC(C)(C)c1ccc(CC(C)CN2C[C@@H](C)O[C@@H](C)C2)cc1 (some centres undefined) [Amorolfine hydrochloride]', 'efficacy', -10),
  ('COc1ccc(Cn2ccc3ccc(C(=O)NO)cc32)cc1', 'efficacy', -71.9),
  ('N[S+](=O)([O-])c1cccc2c1C(=O)c1cccc(O)c1C2=O', 'efficacy', -88),
  ('CO[C@H]1C[C@@H]2CC[C@@H](C)[C@@](O)(O2)C(=O)C(=O)N2CCCC[C@H]2C(=O)O[C@H]([C@H](C)C[C@@H]2CC[C@@H](OP(C)(C)=O)[C@H](OC)C2)CC(=O)[C@H](C)/C=C(\C)[C@@H](O)[C@@H](OC)C(=O)[C@H](C)C[C@H](C)/C=C/C=C/C=C/1C', 'efficacy', -48.8),
  ('Nc1nc(Cl)nc2c1ncn2[C@H]1C[C@H](O)[C@@H](CO)O1', 'efficacy', -55.8),
  ('CCC(C1CCC(C)C(O1)C(C)C(O)C(C)C(=O)C(CC)C2OC\3(O[C@]4(CC[C@@](C)(O4)C5CC[C@@](O)(CC)C(C)O5)C(O)\C=C3)C(C)CC2C)C([O-])=O (some centres undefined)', 'efficacy', -98.3);
